System: Erysiphae graminis
Experiment summary: Fungicidal activity against Barley Powdery Mildew (BPM) disease
Format: in vivo
Experimental parameters: Barley Powdery Mildew; concentration 10 ppm
Outcome measure: BPM (Fungicidal Activities, C.V.) (%)
Numeric answer only, unit % assumed.

[
  {
    "Compound": "COC=C(C(=O)OC)c1ccccc1CON=C(c1cccc(OC(F)=Cc2ccc(OC)cc2)c1)C(F)(F)F [Compound 89]",
    "BPM (Fungicidal Activities, C.V.) [%]": 99
  },
  {
    "Compound": "COC=C(C(=O)OC)c1ccccc1CON=C(C)c1cccc(OC(F)=Cc2ccc(C)cc2)c1 [Compound 42]",
    "BPM (Fungicidal Activities, C.V.) [%]": 100
  },
  {
    "Compound": "COC=C(C(=O)OC)c1ccccc1CON=Cc1cccc(OC(F)=C(c2cccc(C)c2)C(F)(F)F)c1 [Compound 104]",
    "BPM (Fungicidal Activities, C.V.) [%]": 99
  },
  {
    "Compound": "COC=C(C(=O)OC)c1ccccc1CON=Cc1cccc(OC(F)=Cc2cccc(F)c2)c1 [Compound 11]",
    "BPM (Fungicidal Activities, C.V.) [%]": 99
  }
]

Task: If you can, please state the reported BPM (Fungicidal Activities, C.V.) value of CON=C(C(=O)OC)c1ccccc1CON=C(C)c1cccc(OC(F)=Cc2cc(C)cc(C)c2)c1 [Compound 68] .
Output: 100

Task: Requested field: BPM (Fungicidal Activities, C.V.). Item: CCc1ccc(C=C(F)Oc2cccc(C(C)=NOCc3ccccc3C(=COC)C(=O)OC)c2)cc1 [Compound 45]
Output: 100

Task: What measured BPM (Fungicidal Activities, C.V.) goes with COC=C(C(=O)OC)c1ccccc1CON=C(C)c1cccc(OC(F)=C(c2cccc(OC)c2)C(F)(F)F)c1 [Compound 157] ?
Output: 99

Task: Could you share which BPM (Fungicidal Activities, C.V.) value was measured for CON=C(C(=O)OC)c1ccccc1CON=C(C)c1cccc(OC(F)=Cc2ccc(C)c(C)c2)c1 [Compound 67] ?
Output: 100

Task: Fill blank: measured BPM (Fungicidal Activities, C.V.) of the compound COC=C(C(=O)OC)c1ccccc1CON=Cc1cccc(OC(F)=C(c2ccc(Br)cc2)C(F)(F)F)c1 [Compound 118] is ____.
Output: 96

Task: If you can, please state the reported BPM (Fungicidal Activities, C.V.) value of CO/C=C(/C(=O)OC)c1ccccc1CON=C(C)c1cccc(OC(F)=Cc2ccccc2)c1 [Compound 40] .
Output: 100

Task: Using the record for COC=C(C(=O)OC)c1ccccc1CON=C(C)c1cccc(OC(F)=Cc2cc(C)cc(C)c2)c1 [Compound 44] , report its BPM (Fungicidal Activities, C.V.).
Output: 100

Task: Which BPM (Fungicidal Activities, C.V.) value belongs to CON=C(C(=O)OC)c1ccccc1CON=Cc1cccc(OC(F)=Cc2ccccc2)c1 [Compound 24] ?
Output: 100

Task: Suppose we examine the compound COC=C(C(=O)OC)c1ccccc1CON=C(C)c1cccc(OC(F)=Cc2ccc(Cl)c(C)c2)c1 [Compound 52] ; what BPM (Fungicidal Activities, C.V.) value has been reported?
Output: 100

Task: Which measured BPM (Fungicidal Activities, C.V.) value corresponds to COC=C(C(=O)OC)c1ccccc1CON=C(C)c1cccc(OC(F)=Cc2ccc(Cl)cc2)c1 [Compound 54] ?
Output: 100

Task: Need BPM (Fungicidal Activities, C.V.), item CCc1ccc(C(=C(F)Oc2cccc(C(C)=NOCc3ccccc3C(=COC)C(=O)OC)c2)C(F)(F)F)cc1 [Compound 155]
Output: 99

Task: What BPM (Fungicidal Activities, C.V.) value was documented for this compound, COC=C(C(=O)OC)c1ccccc1CON=Cc1cccc(OC(F)=Cc2ccc(OC)cc2)c1 [Compound 9] ?
Output: 99

Task: Which BPM (Fungicidal Activities, C.V.) is listed for COC=C(C(=O)OC)c1ccccc1CON=Cc1cccc(OC(F)=Cc2ccc(Cl)cc2)c1 [Compound 14] ?
Output: 100

Task: Recorded BPM (Fungicidal Activities, C.V.) of COC=C(C(=O)OC)c1ccccc1CON=Cc1cccc(OC(F)=C(c2cccc(Cl)c2)C(F)(F)F)c1 [Compound 116] , please.
Output: 96

Task: Query (compound): CNC(=O)/C(=N/OC)c1ccccc1CON=C(C)c1cccc(OC(F)=Cc2ccccc2)c1 [Compound 77] ; field requested: BPM (Fungicidal Activities, C.V.)
Output: 100

Task: Could you tell me which BPM (Fungicidal Activities, C.V.) is on file for COC=C(C(=O)OC)c1ccccc1CON=Cc1cccc(OC(F)=Cc2ccc(C)cc2)c1 [Compound 3] ?
Output: 99
